FYI, the data here is from ChEMBL document CHEMBL3763152.

Kindly state Vd for each of the entries shown.
Assay: Volume of distribution at steady state in C3H mouse at 2 mg/kg, iv by LC-MS analysis
Format: ADME, organism-based
Conditions: in vivo, read-out: Vdss
Unit L/kg implied. Number only.

Q. Consider the compound shown here: NC(=S)n1nc(-c2ccc([N+](=O)[O-])cc2)c(CCc2cccc(Cl)c2)c1O What is its recorded Vd?
A. 0.83

Q. And NC(=S)n1nc(-c2ccc([N+](=O)[O-])cc2)c(/N=N/c2cccc(Cl)c2)c1O ?
A. 0.37

Q. And for NC(=S)n1nc(-c2ccc([N+](=O)[O-])cc2)c(Cc2cccc(Cl)c2)c1O ?
A. 0.79
